assay: Solid state chemical stability on storage at elevated temperature and relative humidity; format: physicochemical; conditions: solid, 75% rh; 60°C, 75% relative humidity, 7 days; read-out: bis(POC) PMPA citrate%
Counter-ions that a name gives are not always drawn.
METRIC: remaining at 168 h (%)
Only the number, expressed in %, is required.

Ask: Quickly give me recorded remaining at 168 h for CC(C)OC(=O)OCOP(=O)(CO[C@H](C)Cn1cnc2c(N)ncnc21)OCOC(=O)OC(C)C [bis(POC) PMPA citrate]
Result: 6.7

This collection of values is drawn from patent EP1243590A2.
